target-or-system: Human AT2R (Homo sapiens, UniProt P50052)
Construct: Terbium (Tb) donor label on the receptor; From my own knowledge, the Tag-lite format usually uses an N-terminal SNAP-tag fusion labelled with Lumi4-Tb; expressed in transfected cells
Sequence (P50052 1-363): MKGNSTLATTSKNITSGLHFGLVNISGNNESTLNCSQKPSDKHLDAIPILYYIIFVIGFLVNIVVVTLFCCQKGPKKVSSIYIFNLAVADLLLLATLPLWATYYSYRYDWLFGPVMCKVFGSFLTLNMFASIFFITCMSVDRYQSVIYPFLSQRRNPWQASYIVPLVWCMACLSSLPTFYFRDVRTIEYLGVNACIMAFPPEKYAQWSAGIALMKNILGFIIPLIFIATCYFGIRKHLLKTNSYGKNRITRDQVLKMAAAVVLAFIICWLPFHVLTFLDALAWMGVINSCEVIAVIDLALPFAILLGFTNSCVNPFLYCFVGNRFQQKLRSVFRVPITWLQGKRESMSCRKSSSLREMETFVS
protocol-notes: Antagonistic activity assay on human AT2R ligand binding (Tag-lite HTRF, Tb-labeled-AT2R cells)
details: AT2 ligand binding, red agonist fluorescent ligand
property-name: IC50 (nM)
One number for each entry, in nM.

> print(dat)
                                   compound                          target.or.system  property.name  value
1  COc1ccc(COc2c(OC)ccc3c2C[C@@H](C(=O)O)N(c2nc4ccc(F)cc4o2)C3)cc1 [Example 30]  Human AT2R (Homo sapiens, UniProt P50052)           IC50      4
2  COc1ccc(COc2c(OC)ccc3c2C[C@@H](C(=O)O)N(c2nc4ccc(F)cc4o2)C3)nc1 [Example 36]  Human AT2R (Homo sapiens, UniProt P50052)           IC50     10
3  COc1ccc(COc2c(OC)ccc3c2C[C@@H](C(=O)NS(=O)(=O)N(C)C)N(c2nc4ccc(F)cc4o2)C3)cc1 [Example 46]  Human AT2R (Homo sapiens, UniProt P50052)           IC50      5

Please examine the following record next.
Record COc1ccc2c(c1OCc1ccccc1)C[C@@H](C(=O)O)N(c1nc3ccc(Cl)cc3o1)C2 [Example 16] / Human AT2R (Homo sapiens, UniProt P50052), IC50 recorded as 36
